target-of-assay: WDR5 protein (Homo sapiens (Human), UniProt P61964)
procedure-text: Surface Plasmon Resonance (SPR) assay
Format: binding
particulars: SPR, Table 2; read-out: WDR5 binding affinity SPR (KD)
pKd: −log10 of the molar value.

| compound | qualifier | pKd |
| --- | --- | --- |
| COc1cc(C(F)(F)F)c(C(=O)Nc2cc(-c3cc(CN4CCN(C(C)=O)CC4)ccc3F)ccc2N2CCN(C)CC2)cn1 | < | 6.70 |
| CN1CCN(c2ccc(-c3ccc(CN4CCOCC4)cc3F)cc2NC(=O)c2c[nH]c(=O)cc2C(F)(F)F)CC1 | = | 8.10 |
| Cc1cc(C(=O)Nc2cc(-c3cc(CN4CCOCC4)ccc3F)ccc2N2CCN(C)CC2)cc(C(F)(F)F)c1F | = | 7.26 |
| CC(=O)Nc1cc(C)c(C(=O)Nc2cc(-c3cc(CN4CCOCC4)ccc3F)ccc2N2CCN(C)CC2)cn1 | = | 6.08 |
| COc1cc(C(F)(F)F)c(C(=O)Nc2cc(-c3cc(CN4CCC(C(C)C)C4)ccc3F)ccc2N2CCN(C)CC2)cn1 (stereo in doubt) | < | 6.70 |
